- Test system: Acinetobacter baumannii clinical strains
- Experiment notes: Information of drug resistance of 10 clinical strains
- Type: cell-based
- Set-up: key: S: Drug Susceptible; I: Drug Intermediate; R: Drug Resistant
- Cond: strain TNP041702

>  <Compound>
CO/N=C(\C(=O)N[C@@H]1C(=O)N2C(C(=O)O)=C(COC(C)=O)CS[C@H]12)c1csc(N)n1

>  <Drug resistance>
R

$$$$
>  <Compound>
CCN1CCN(C(=O)N[C@@H](C(=O)N[C@@H]2C(=O)N3[C@@H]2SC(C)(C)[C@@H]3C(=O)O)c2ccccc2)C(=O)C1=O

>  <Drug resistance>
R

$$$$
>  <Compound>
CO/N=C(\C(=O)N[C@@H]1C(=O)N2C(C(=O)[O-])=C(C[N+]3(C)CCCC3)CS[C@H]12)c1csc(N)n1 [Cefepime]

>  <Drug resistance>
R

$$$$
